Listing: pKi of selected molecules
molecular target: Cy5-labelled Mcl1 (amino acids 171-321) C286S protein (UniProtKB Q07820) (Homo sapiens (Human), UniProt Q07820, C286S); assay: Inhibition of Mcl-1 by the fluorescence quenching assay (Example A, Method B); type: binding; conditions: Ki determined from IC50
Sequence (Q07820 171-321 C286S): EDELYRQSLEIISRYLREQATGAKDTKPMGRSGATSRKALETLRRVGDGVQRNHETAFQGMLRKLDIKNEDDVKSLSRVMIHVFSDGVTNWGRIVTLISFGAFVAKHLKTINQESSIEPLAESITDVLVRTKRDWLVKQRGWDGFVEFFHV
pKi: −log10 of the molar value.
quantity-name: pKi

# molecule, reported-measurement
data = [
    ("O=C(O)[C@]1(Nc2cccc(Cl)c2)CC[C@]2(CC1)C(CCOc1ccnc3ccsc13)=Cc1ccccc12 [Example 178]", 7.43),
    ("C[C@@H](COc1ccnc2c1[C@H](C)CCC2)CN1Cc2cc(Cl)ccc2[C@]12CC[C@@](Nc1cccc(Cl)c1)(C(=O)O)CC2 [Example 56]", 9.12),
    ("C[C@@H](COc1ccnc2c1[C@H](C)CCC2)CN1Cc2cc(F)ccc2[C@]12CC[C@@](Nc1cccc(Cl)c1)(C(=O)O)CC2 [Example 41]", 9.45),
    ("COc1cc2c(cc1F)CN(C[C@@H](C)COc1ccnc3c1[C@H](C)CCC3)[C@]21CC[C@](Nc2cccc(Cl)c2)(C(=O)O)CC1 [Example 43]", 9.60),
    ("Cc1ccc2c(c1)CN(C[C@@H](C)COc1ccnc3c1[C@H](C)CCC3)[C@]21CC[C@](Nc2cccc(Cl)c2C)(C(=O)O)CC1 [Example 53]", 8.82),
    ("COCc1cc2c(cc1F)CN(C[C@@H](C)COc1ccnc3c1[C@H](C)CCC3)[C@]21CC[C@](Nc2cccc(Cl)c2)(C(=O)O)CC1 [Example 51]", 10.12),
]

###

system: H929 multiple myeloma tumor line; assay: In vitro cytotoxicity, MTT assay (Example B, Method A); format: cell-based; details: H929 cells, 48 hours exposure, read-out: C50
quantity-name: log10 IC50 (log10 of the value in nM)

# molecule, target-desc, log10 IC50
records = [
    ("C[C@@H]1CCCc2nccc(OCC(CF)CC3=Cc4ccccc4[C@]34CC[C@@](Nc3cccc(Cl)c3)(C(=O)O)CC4)c21 (single isomer, unassigned) [Example 514]", "H929 multiple myeloma tumor line", 2.51),
    ("CC1CCc2nccc(OC[C@H](C)CC3=Cc4ccccc4[C@]34CC[C@@](Nc3cccc(Cl)c3)(C(=O)O)CC4)c21 (single isomer, unassigned) [Example 629]", "H929 multiple myeloma tumor line", 2.94),
    ("C[C@@H](COc1ccnc2c1[C@H](C)CCC2)CC1Cc2c(Cl)c(F)ccc2[C@]12CC[C@@](Nc1cccc(Cl)c1)(C(=O)O)CC2 (single isomer, unassigned) [Example 746]", "H929 multiple myeloma tumor line", 1.40),
    ("O=C(O)[C@]1(Nc2cccc(Cl)c2)CC[C@@]2(CC1)c1ccccc1CC2CC(COc1ccnc2ccsc12)Cc1ccccc1 (single isomer, unassigned) [Example 563]", "H929 multiple myeloma tumor line", 3.60),
    ("CC(O)c1ccc2c(c1)[C@]1(CC[C@@](Nc3cccc(Cl)c3)(C(=O)O)CC1)[C@@H](C[C@@H](C)COc1ccnc3c1[C@H](C)CC[C@H]3O)C2 (single isomer, unassigned) [Example 862]", "H929 multiple myeloma tumor line", 1.87),
    ("O=C(O)[C@]1(Nc2cccc(Cl)c2)CC[C@@]2(CC1)c1ccccc1CC2CC(COc1ccnc2c1CCC2)COc1ccnc2c1CCC2 (single isomer, unassigned) [Example 498]", "H929 multiple myeloma tumor line", 2.64),
    ("CC(CC1Cc2ccccc2[C@]12CC[C@@](Nc1cccc(Cl)c1)(C(=O)O)CC2)C1CCC(=O)CC1 (single isomer, unassigned) [Example 573]", "H929 multiple myeloma tumor line", 4.48),
    ("C[C@@H](COc1ccnc2c1[C@H](C)CCC2)CC1Cc2c(Cl)cccc2[C@]12CC[C@@](Nc1cccc(Cl)c1)(C(=O)O)CC2 (single isomer, unassigned) [Example 741]", "H929 multiple myeloma tumor line", 2.12),
    ("C[C@@H](COc1ccnc2c1[C@H](C)CCC2)CC1Cc2c(Cl)cccc2[C@]12CC[C@@](Nc1cccc(Cl)c1)(C(=O)O)CC2 (single isomer, unassigned) [Example 740]", "H929 multiple myeloma tumor line", 1.66),
    ("CC(C)C(COc1ccnc2ccsc12)CC1Cc2ccccc2C12CCC(Nc1cccc(Cl)c1)(C(=O)O)CC2 (centres unmarked) [Example 525]", "H929 multiple myeloma tumor line", 3.40),
    ("O=C(O)[C@]1(Nc2cccc(Cl)c2)CC[C@@]2(CC1)c1ccccc1CC2CC(COc1ccnc2ccsc12)Cc1ccccc1 (single isomer, unassigned) [Example 562]", "H929 multiple myeloma tumor line", 4.25),
]

###

biological target: Mcl-1 protein (UniProtKB Q07820) (Homo sapiens (Human), UniProt Q07820); assay: Inhibition of Mcl-1 by the fluorescence polarisation assay (Example A, Method A); settings: fluorescence polarization assay
Sequence (Q07820 whole entry): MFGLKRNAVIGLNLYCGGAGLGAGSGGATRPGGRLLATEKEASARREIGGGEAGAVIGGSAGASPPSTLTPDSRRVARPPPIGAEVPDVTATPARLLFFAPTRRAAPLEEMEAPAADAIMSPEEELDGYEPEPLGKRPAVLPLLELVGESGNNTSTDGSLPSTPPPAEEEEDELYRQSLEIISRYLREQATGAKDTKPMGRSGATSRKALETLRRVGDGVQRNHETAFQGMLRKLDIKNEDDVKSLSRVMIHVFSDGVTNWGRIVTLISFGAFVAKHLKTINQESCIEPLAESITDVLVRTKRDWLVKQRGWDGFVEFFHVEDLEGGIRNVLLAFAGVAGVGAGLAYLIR
// assign 1 if Ki falls strictly below 700 nM, else -1 (ties count as -1)

# molecule, assigned-category
measured = [
    ("O=C(O)[C@]1(Nc2cccc(Cl)c2)CC[C@@]2(C=Cc3ccccc32)CC1", -1),
    ("COc1cccc(C)c1C1=Cc2ccccc2[C@]12CC[C@@](Nc1cccc(Cl)c1)(C(=O)O)CC2", -1),
    ("O=C(O)[C@]1(Nc2cccc(Cl)c2)CC[C@@]2(CC1)c1ccccc1CC2[C@H]1C[C@@H]1COc1cccnc1 (single isomer, unassigned) [Example 116]", -1),
    ("O=C(O)[C@]1(Nc2cccc(Cl)c2)CC[C@@]2(CC1)c1ccccc1CC2CCCOc1cccc2[nH]cnc12 (stereo partly shown)", 1),
    ("CC1=Cc2cccc(C)c2C12CCC(Nc1cccc(Br)c1)(C(=O)O)CC2 (stereo not shown)", -1),
    ("COc1ccc2c(c1)[C@]1(CC2)CC[C@@](Nc2cccc(Br)c2)(C(=O)O)CC1", -1),
    ("O=C(O)[C@]1(Nc2cccc(Cl)c2)CC[C@]2(CC1)C(Br)=Cc1ccc(Cl)cc12", 1),
]

###

Molecular target: Cy5-labelled Mcl1 (amino acids 171-321) C286S protein (UniProtKB Q07820) (Homo sapiens (Human), UniProt Q07820, C286S)
Experiment: Inhibition of Mcl-1 by the fluorescence quenching assay (Example A, Method B)
Format: binding
Details: @ 1 μM, read-out: Mcl-1 inhibition, % at a single concentration
Excerpt: Fluorescence quenching assay measures the change fluorescence intensity of C-terminally Cy5-labelled Mcl1 (amino acids 171-321) C286S protein (UniProtKB® primary accession number Q07820) having an amino acid sequence: […] The addition of a compound which binds competitively to the same site as the peptide will result in an increase in the fluorescence intensity of the protein due to displacement of the fluorescence quencher. […]
Please mark true if the recorded inhibition at 1 µM is equal to or greater than 10%, and false if it falls below.

# compound, assigned-category
records = [
    ("CCOC(=O)[C@]1(Nc2cccc(Cl)c2)CC[C@@]2(CC1)c1cc3c(cc1C[C@@H]2C[C@@H](C)COc1ccnc2c1[C@H](C)CCC2)OCO3 [Example 930]", "false"),
    ("CC(C)OC(=O)OC(C)OC(=O)[C@]1(Nc2cccc(Cl)c2)CC[C@@]2(CC1)c1cc3c(cc1C[C@@H]2C[C@@H](C)COc1ccnc2c1[C@H](C)CCC2)OCO3 (some centres unmarked) [Example 944]", "true"),
    ("CCN(CC)C(=O)OC(C)OC(=O)[C@]1(Nc2cccc(Cl)c2)CC[C@@]2(CC1)c1cc3c(cc1C[C@@H]2C[C@@H](C)COc1ccnc2c1[C@H](C)CCC2)OCO3 (some centres unmarked) [Example 949]", "true"),
    ("COC(=O)[C@]1(Nc2cccc(Cl)c2)CC[C@@]2(CC1)c1cc3c(cc1C[C@@H]2C[C@@H](C)COc1ccnc2c1[C@H](C)CCC2)OCO3 [Example 839]", "true"),
    ("CCN(CC)C(=O)OCOC(=O)[C@]1(Nc2cccc(Cl)c2)CC[C@@]2(CC1)c1cc3c(cc1C[C@@H]2C[C@@H](C)COc1ccnc2c1[C@H](C)CCC2)OCO3 [Example 950]", "false"),
]

###

target: Mcl-1 protein (UniProtKB Q07820) (Homo sapiens (Human), UniProt Q07820); experiment: Inhibition of Mcl-1 by the fluorescence polarisation assay (Example A, Method A); details: fluorescence polarization assay
pKi: −log10 of the molar value.
Listing: pKi of selected molecules

# molecule, target-desc, pKi
records = [
    ("O=c1ccn(CCCC2Cc3ccccc3[C@]23CC[C@@](Nc2cccc(Cl)c2)(C(=O)O)CC3)cc1 (stereo partly shown)", "Mcl-1 protein (UniProtKB Q07820) (Homo sapiens (Human), UniProt Q07820)", 4.49),
    ("Cc1ccc(C2=Cc3ccccc3[C@]23CC[C@@](Nc2cccc(Cl)c2)(C(=O)O)CC3)cc1", "Mcl-1 protein (UniProtKB Q07820) (Homo sapiens (Human), UniProt Q07820)", 5.63),
    ("O=C(O)[C@]1(Nc2ccccc2)CC[C@]2(CC1)C(CCCOc1ccnc3ccsc13)=Cc1ccccc12", "Mcl-1 protein (UniProtKB Q07820) (Homo sapiens (Human), UniProt Q07820)", 5.99),
    ("O=C(O)[C@]1(Nc2cccc(Cl)c2)CC[C@]2(CC1)C(Cc1ccccc1)=Cc1ccccc12", "Mcl-1 protein (UniProtKB Q07820) (Homo sapiens (Human), UniProt Q07820)", 5.78),
    ("O=C(O)[C@]1(Nc2cccc(Cl)c2)CC[C@@]2(CC1)c1ccccc1CC2[C@H]1C[C@@H]1COc1ccccc1 (single isomer, unassigned) [Example 112]", "Mcl-1 protein (UniProtKB Q07820) (Homo sapiens (Human), UniProt Q07820)", 5.79),
    ("O=C(O)[C@]1(Nc2cccc(Cl)c2)CC[C@@]2(CC1)c1ccccc1CC2Cc1ccccc1 (stereo partly shown)", "Mcl-1 protein (UniProtKB Q07820) (Homo sapiens (Human), UniProt Q07820)", 5.32),
    ("CC(C)C(COc1ccnc2ccsc12)CC1Cc2ccccc2[C@]12CC[C@@](Nc1cccc(Cl)c1)(C(=O)O)CC2 (single isomer, unassigned)", "Mcl-1 protein (UniProtKB Q07820) (Homo sapiens (Human), UniProt Q07820)", 5.20),
]
